Threshold 90 °C. melting point below it: YES. melting point at it or above: NO.

- Compound: "c1ccc2sccc2c1"
  Classification: "YES"
- Compound: "c1ccc(C(c2ccccc2)(c2ccccc2)N2CCOCC2)cc1"
  Classification: "NO"
- Compound: "Nc1ccc2c(c1)C(=O)c1ccccc1C2=O"
  Classification: "NO"
- Compound: "COc1ccc2c(c1)[nH]c1c(C)nccc12"
  Classification: "NO"
- Compound: "c1ccc2c(c1)NCCN2"
  Classification: "NO"
- Compound: "COc1cc2c(cc1O)[C@H](Cc1ccc(O)cc1)NCC2"
  Classification: "NO"
- Compound: "OCc1cc(Br)ccc1O"
  Classification: "NO"
- Compound: "C#C[C@]1(O)CC[C@H]2[C@@H]3CCc4cc(O)ccc4[C@H]3[C@@H](OC)C[C@@]21C"
  Classification: "NO"
- Compound: "CC(C)=CCC/C(C)=C/C=C/C(C)=C/C=C/C(C)=C/C=C/C=C(C)/C=C/C=C(C)/C=C/C=C(\\C)CCC=C(C)C"
  Classification: "NO"
- Compound: "Cc1ccc(-c2ccccc2)cc1C"
  Classification: "YES"
- Compound: "CC(=O)CC(C)(C)O"
  Classification: "YES"
- Compound: "O=C1C(F)=C(F)C(=O)C(F)=C1F"
  Classification: "NO"
- Compound: "CC(C)NCC(O)c1cc(O)cc(O)c1 (stereo not given)"
  Classification: "NO"
- Compound: "O=C(Cl)c1ccccc1"
  Classification: "YES"
- Compound: "O=C(O)c1ccccc1OP(=O)(O)O"
  Classification: "NO"
- Compound: "ClC(Cl)C(Cl)C(Cl)Cl"
  Classification: "YES"
- Compound: "O=Cc1ccc(CO)o1"
  Classification: "YES"
- Compound: "NS(=O)(=O)c1ccc(SCCCO)cc1"
  Classification: "NO"
- Compound: "CCCCCCCCCCC"
  Classification: "YES"
- Compound: "CCCCCCCCCCCCCCCC(CCCC)c1ccccc1 (stereo not given)"
  Classification: "YES"
- Compound: "CCOc1ccc(C(=O)OCCN(CC)CC)cc1"
  Classification: "NO"
- Compound: "CCCCc1ccc(O)cc1"
  Classification: "YES"
- Compound: "CC[C@H](C(N)=O)[C@@H](C)CC"
  Classification: "NO"
- Compound: "Clc1sc(Cl)c(Cl)c1Cl"
  Classification: "YES"
- Compound: "C=CC(=O)OCCCCCC"
  Classification: "YES"
- Compound: "CCCCCCCCCCCCCC(=O)Cl"
  Classification: "YES"
- Compound: "NC(N)=Nc1nc(CSCCC(N)=NS(N)(=O)=O)cs1"
  Classification: "NO"
- Compound: "C=CCc1ccc(O)cc1"
  Classification: "YES"
- Compound: "CC(COc1ccc(C(C)(C)C)cc1)OS(=O)OCCCl (stereo not given)"
  Classification: "YES"
- Compound: "CC(C)CCCC(C)C"
  Classification: "YES"
- Compound: "C=CCCCCC"
  Classification: "YES"
- Compound: "CCCCCCCCCCCc1ccccc1"
  Classification: "YES"
- Compound: "O=C(O)CCCCCCCF"
  Classification: "YES"
- Compound: "N=C(N)c1ccc(Oc2ccc(C(=N)N)cc2)cc1"
  Classification: "NO"
- Compound: "c1ccc2cnccc2c1"
  Classification: "YES"
- Compound: "O=[N+]([O-])c1ccccc1C(F)(F)F"
  Classification: "YES"
- Compound: "CCCCCCCCCCCCCCCCCC"
  Classification: "YES"
- Compound: "COc1c2ccoc2cc2oc(CO[C@@H]3O[C@H](CO)[C@@H](O)[C@H](O)[C@H]3O)cc(=O)c12"
  Classification: "NO"
- Compound: "CCCCCCCCCc1cccc2ccccc12"
  Classification: "YES"
- Compound: "Cc1cccnc1N"
  Classification: "YES"
- Compound: "O=C(O)c1ccccc1C(F)(F)F"
  Classification: "NO"
- Compound: "CCCCCCCl"
  Classification: "YES"
- Compound: "CCCCC(CC)COC(=O)c1ccccc1C(=O)OCC(CC)CCCC (stereo not given)"
  Classification: "YES"
- Compound: "Cc1cc(C2CC2)nc(Nc2ccccc2)n1"
  Classification: "YES"
- Compound: "O=C1CCCCCCCCC1"
  Classification: "YES"
- Compound: "COc1ccc(C#N)cc1"
  Classification: "YES"
- Compound: "CC1=CC[C@@]23CC1C(C)(C)[C@@H]2CC[C@H]3C"
  Classification: "NO"
- Compound: "O=C(O)c1ccccn1"
  Classification: "NO"
- Compound: "COc1cc([C@@H]2c3cc4c(cc3C(O[C@@H]3O[C@@H]5CO[C@@H](C)O[C@H]5[C@H](O)[C@H]3O)C3COC(=O)[C@@H]32)OCO4)cc(OC)c1O (stereo not given in full)"
  Classification: "NO"
- Compound: "CC1=C[C@@H](O)[C@@H]2C[C@H]1C2(C)C (racemic)"
  Classification: "YES"
- Compound: "O=C(Cl)c1cc(C(=O)Cl)cc(C(=O)Cl)c1"
  Classification: "YES"
- Compound: "CCCCNCC(O)c1ccc(O)cc1 (stereo not given)"
  Classification: "NO"
- Compound: "CCc1ccsc1"
  Classification: "YES"
- Compound: "CCC(=O)NC"
  Classification: "YES"
- Compound: "O=C1Nc2ccc(Cl)cc2C(c2ccccc2Cl)=NC1O (stereo not given)"
  Classification: "NO"
- Compound: "CCS(=O)(=O)O"
  Classification: "YES"
- Compound: "CC(C)(O)CCCC1=CCC(C=O)CC1 (stereo not given)"
  Classification: "YES"
- Compound: "Cc1ccc2nc(C)cc(C)c2c1"
  Classification: "YES"
